- assay system: E. coli agmatinase (EcAGM) (Escherichia coli)
- Sequence (P60651 1-306): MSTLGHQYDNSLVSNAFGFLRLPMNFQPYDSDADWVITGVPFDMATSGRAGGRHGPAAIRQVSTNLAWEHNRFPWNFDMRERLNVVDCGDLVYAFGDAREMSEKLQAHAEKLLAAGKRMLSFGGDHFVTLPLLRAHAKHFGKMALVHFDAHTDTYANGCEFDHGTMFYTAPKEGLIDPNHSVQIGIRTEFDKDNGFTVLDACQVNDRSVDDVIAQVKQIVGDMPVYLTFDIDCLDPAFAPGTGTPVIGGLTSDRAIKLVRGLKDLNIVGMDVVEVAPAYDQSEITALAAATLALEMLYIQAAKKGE
property label: Ki (µM)
Lab book: enter the figure in µM, no units written.

Q) Request the reported Ki associated with CCCCNC(=N)NC(=N)N [buformin]
A) 100

Q) And for [H]/N=C(/N)N/C(=N/[H])NCCc1ccccc1 [phenformin] ?
A) 600

Q) Also CC(C)=CCN=C(N)N [galegine] , if possible.
A) 7
